Tested on: Huh7 cells
Conditions: initial screening
I'd appreciate it if you could supply CC50 values for the items below.
Numbers only, in µM.

Some solved entries appear below for comparison.
- compound: "CN(C)CCCN1c2ccccc2Sc2ccccc21 [NCGC00015829]"
  tested_system: "Huh7 cells"
  CC50 (µM): 18.4
- compound: "CN1CCN([C@H](c2ccccc2)c2ccc(Cl)cc2)CC1 [NCGC00343774]"
  tested_system: "Huh7 cells"
  CC50 (µM): 14.4
- compound: "Clc1ccc(C(c2ccccc2)N2CCNCC2)cc1 (stereo not shown) [NCGC00345879]"
  tested_system: "Huh7 cells"
  CC50 (µM): 28
- compound: "CN1CCN(C(c2ccc(Cl)cc2)c2ccc(Cl)cc2)CC1 [NCGC00351413]"
  tested_system: "Huh7 cells"
  CC50 (µM): 12.9
- compound: "CN1CCN([C@@H](c2ccccc2)c2ccc(Cl)cc2)CC1 [NCGC00343775]"
  tested_system: "Huh7 cells"
  CC50 (µM): 11.2

Required: CC50, one value per compound below.
1. Clc1ccc(C(c2ccccc2)N2CCNCC2)cc1 (stereo not shown) [NCGC00345880]
2. COc1ccc(CN2CCN([C@@H](c3ccccc3)c3ccc(Cl)cc3)CC2)c(OC)c1 [NCGC00346845]

Output:
[13.4, 24.6]
